Recorded values, source ChEMBL document CHEMBL1123064.

species on record: Rattus norvegicus; assay: Concentration required to inhibit antigen-induced release of histamine (AIR) by 50% from passively sensitized rat mast cells; assay type: functional, cell-based; details: read-out: I50
Reported values of IC50 for individual entries
Numbers only; they are read as µM.

Record excerpt, results attached:
{"mol": "N#Cc1ccc2[nH]c(=O)c(=O)oc2c1", "unit": "µM", "IC50": 15}
{"mol": "COc1ccc2oc(=O)c(=O)[nH]c2c1", "unit": "µM", "IC50": 15}
{"mol": "O=c1[nH]c2ccccc2oc1=O", "unit": "µM", "IC50": 42}
{"mol": "C=CCc1cc(OC)c2oc(=O)c(=O)[nH]c2c1", "unit": "µM", "IC50": 10}
{"mol": "COc1cc2[nH]c(=O)c(=O)oc2cc1OC", "unit": "µM", "IC50": 30}
{"mol": "O=c1[nH]c2cc3c(cc2oc1=O)CCCC3", "unit": "µM", "IC50": 10}
{"mol": "O=c1[nH]c2cc([N+](=O)[O-])ccc2oc1=O", "unit": "µM", "IC50": 0.8}
{"mol": "COc1cccc2[nH]c(=O)c(=O)oc12", "unit": "µM", "IC50": 7}
{"mol": "O=c1[nH]c2cc(C(F)(F)F)ccc2oc1=O", "unit": "µM", "IC50": 100}
{"mol": "CCOC(=O)c1ccc2oc(=O)c(=O)[nH]c2c1", "unit": "µM", "IC50": 10}

Per the record, "COC(=O)c1cc(OC)c2oc(=O)c(=O)[nH]c2c1" has IC50 of 3.4

Short answer for "Cc1ccc2[nH]c(=O)c(=O)oc2c1" : IC50 was 32

Given item "COc1ccc2[nH]c(=O)c(=O)oc2c1" , the value recorded as its IC50 is 28

The recorded IC50 for "O=C(O)c1ccc2[nH]c(=O)c(=O)oc2c1" is 16

Record "O=c1[nH]c2cc3[nH]c(=O)c(=O)oc3cc2oc1=O" . Reported IC50: 3
